pKi: −log10 of the molar value.
Compiled literature pKi, tested on Peptidyl-prolyl cis-trans isomerase FKBP1A (Homo sapiens, UniProt P62942).
Quick rule: pKi of at least 6 means t, below that means f.

Would you please look over these solved cases?
• CCCc1ccc(CCC)n1-c1cccc(C(OC(=O)[C@@H]2CCCCN2C(=O)C(=O)[C@@H]2CCCC[C@H]2C)/C(C)=C/c2ccncc2)c1 (stereo partly drawn) = f
• CO[C@H]1C[C@@H]2CC[C@@H](C)[C@](O)(CC(=O)N3CCCC[C@H]3C(=O)O[C@H]([C@H](C)C[C@H]3CC[C@H](O)CC3)C/C=C(\C)[C@@H](O)CC(=O)[C@H](C)C[C@H](C)/C=C/C=C/C=C/1C)O2 = t
• CCN(C(=O)C(=O)OC)[C@@H](C)C(=O)OC(C)(C)C = f
• CCOCc1cc2ccccc2n1-c1cccc([C@@H](OC(=O)[C@@H]2CCCCN2C(=O)C(=O)c2ccco2)/C(C)=C/[C@H]2CC[C@H](O)CC2)c1 = t
• O=C(Cc1ccccc1)C(=O)N1CCCC[C@H]1C(=O)OCCCCc1ccccc1 = t

Continue with the molecule presented below.
Kindly determine if pKi recorded for COC(=O)C(=O)N1CCCC[C@H]1C(=O)OC/C(C)=C/c1ccc(OC)cc1 is above or exactly 6.
f
